assay-system: SARS-CoV-2 RBD (SARS-CoV-2)
protocol: ELISA, 100 ng coated RBD, neat supernatant, anti-human IgG-HRP
measurement-type: Binding SARS-CoV-2

Q. Query Binding SARS-CoV-2 for Antibody 8 (SS6V8-D3) (antibody, V domains shown) VH: EVQLVESGGDLVQPGGSLRLSCSASGFTFSTYAMHWVRQAPGKGLDYVASIASDGGITTYADSVKGRFTISRDNSKNALYLQMSSLRVEDTAVYYCVKDSLTSVTTIFDCWGQGTLVTVSS VL: DIQMTQSPSSLSASVGDSVTITCRASQNINSYLHWYQQKPGKAPKLLIYTASSLQSGVPSRFSASGSGTHFTLTISSLQPEDFATYYCQQSYTDPYTFGQGSKVEIK
A. 1.94

Q. Query Binding SARS-CoV-2 for Antibody 2 (SS6V2-G1) (antibody, V domains shown) VH: EVQLVESGGGLVQPGGSLRLSCAASGFTVSSNYMSWVRQAPGKGLEWVSVIYSGGSTFYADSVKGRFTISRDNSKNTLYLQMNSLRAEDTAVYYCARELRHYFDYWGQGTLVTVSS VL: DIQLTQSPSFLSASVGDRVTITCRASQGISSYLAWYQQKPGKAPKLLIYAASTLQSGVPSRFSGSGSGTEFTLTISSLQPEDFATYYCQQLNSYPPYSFGQGTKVEIK
A. 0.947

Q. Query Binding SARS-CoV-2 for Antibody 6 (SS6V6-C4) (antibody, V domains shown) VH: EVQLVESGGGLVQPGGSLRLSCSASGFTFNTYAMHWVRQAPGKGPEYVSGISSNGGITDYADSVKGRFTISRDNSKNTLYLQMSSLRPEDTAVYYCVKDSLATVVTLLSYWGQGTLVTVSS VL: DIQMTQSPSSLSASVGDRVTITCRASQTISSYLNWFQQKPGKAPKLLIYAASSLQSGVPSRFSGSGSGTDFTLTISSLQPEDFAIYYCQQSYSTPGTFGQGTKVEIK
A. 1.92
